B1: tRNA (parent)
chain: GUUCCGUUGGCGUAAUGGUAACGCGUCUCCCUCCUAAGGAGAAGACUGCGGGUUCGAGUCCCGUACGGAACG

Variants of: B1
Test Details: yeast fitness relative to wild type (ratio to wild type); higher = fitter; tRNA-Arg(CCU), competitive growth, 37 C, YPD
Variants at the floor of the assay were thinned out.
Measured yeast fitness of individual entries
Returns: the value as a bare number; no unit string appended.

Recorded yeast fitness, per entry:
[[record]]
variant_string = "C24U C29A A40G"
assay_readout = "yeast fitness"
observed = 0.514

[[record]]
variant_string = "G6A U47G"
assay_readout = "yeast fitness"
observed = 0.594

[[record]]
variant_string = "C11U G67U"
assay_readout = "yeast fitness"
observed = 0.846

[[record]]
variant_string = "A15U U53G"
assay_readout = "yeast fitness"
observed = 0.539

[[record]]
variant_string = "A15G A37G"
assay_readout = "yeast fitness"
observed = 0.795

[[record]]
variant_string = "U26A A43G A69C"
assay_readout = "yeast fitness"
observed = 0.649

[[record]]
variant_string = "U2A C11A A14G C29U G68U"
assay_readout = "yeast fitness"
observed = 0.564

[[record]]
variant_string = "A20U C34G"
assay_readout = "yeast fitness"
observed = 0.68

[[record]]
variant_string = "A21U C49U"
assay_readout = "yeast fitness"
observed = 0.781


Now for another entry.
Inquiry: Entry under review: C24G C27U A40U U59C G68A . Reported yeast fitness?
Reply text: 0.582
